These measurements were taken from PubChem BioAssay AID1845206.

- Test system: NCI-H1618 multicellular tumor spheroid viability
- experiment_summary: Anticancer human tumor NCI-H1618 cell line growth inhibition;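 also: spheroids exposed to agents for 7 days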
- condition_description: second compound 0.03 µM; first compound 3.16 µM; stronger effect = lower value
Label T when viability, T/C is strictly below 2%; at or above that, label F.

Some solved cases for reference:
compound="COc1cc(C)[nH]c(=O)c1CN1CCc2c(Cl)cc(C(OC)C3COC3)c(Cl)c2C1=O (stereo unspecified) + CC[C@@]1(O)C(=O)OCc2c1cc1n(c2=O)Cc2cc3c(CN(C)C)c(O)ccc3nc2-1" group=F
compound="Cc1cc(C)c(CNC(=O)c2cc(-c3ccc(CN4CCOCC4)cc3)cc3c2cnn3C2CCCC2)c(=O)[nH]1 + CC[C@@]1(O)C(=O)OCc2c1cc1n(c2=O)Cc2cc3c(CN(C)C)c(O)ccc3nc2-1" group=T
compound="CC1COCCN1c1cc(-c2ccnn2C)c2ccnc(-c3ccn[nH]3)c2n1 (stereo unspecified) + CC[C@@]1(O)C(=O)OCc2c1cc1n(c2=O)Cc2cc3c(CN(C)C)c(O)ccc3nc2-1" group=T
compound="COc1ccc([C@@H](O)c2cc(-c3ncnc4cc(N5CCOCC5)ccc34)c(F)cc2Cl)nn1 + CC[C@@]1(O)C(=O)OCc2c1cc1n(c2=O)Cc2cc3c(CN(C)C)c(O)ccc3nc2-1" group=F
compound="[2H]c1nc(C)nc([2H])c1-c1cc(NC[C@@H](C)c2cccc3c(C(=O)NC)ccnc23)ncn1 + CC[C@@]1(O)C(=O)OCc2c1cc1n(c2=O)Cc2cc3c(CN(C)C)c(O)ccc3nc2-1" group=F

Lab note: viability, T/C threshold 2%. Does this compound come in strictly under it? CC(C)n1c(=O)n(C)c2cnc3cc(F)c(-c4ccc(OCCCN5CCCCC5)nc4)cc3c21 + CC[C@@]1(O)C(=O)OCc2c1cc1n(c2=O)Cc2cc3c(CN(C)C)c(O)ccc3nc2-1
F
